Reference for the values: paper PMC13311836

Molecular target: T1, RasGAP SH2-SH3-SH2 construct (residues 174 to 444), R194C (human, UniProt P20936 174-444, R194C | C236S | C261S | C372S | C402S)
T1 sequence: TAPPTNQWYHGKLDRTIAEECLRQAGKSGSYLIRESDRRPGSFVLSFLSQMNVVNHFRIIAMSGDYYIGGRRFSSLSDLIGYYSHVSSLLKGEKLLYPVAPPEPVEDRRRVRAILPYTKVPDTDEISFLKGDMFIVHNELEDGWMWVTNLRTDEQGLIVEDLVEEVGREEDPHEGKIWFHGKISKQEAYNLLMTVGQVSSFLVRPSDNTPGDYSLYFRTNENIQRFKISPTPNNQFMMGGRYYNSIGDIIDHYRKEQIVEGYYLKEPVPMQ
Assay: ITC; average
[ ]: non-standard residue; d: D form. pY = N[C@@H](Cc1ccc(OP(=O)(O)O)cc1)C(=O)O
Parameter: pKd
Note on units: pKd is unitless, being -log10 of a concentration expressed in mol/L.

Noted for Ac-DPSD[pY]AEPMDAVVKPRNEEENI[pY]SVPHDS-NH2 (p190RhoGAP (ARHGAP35), UniProt Q9NRY4, residues 1083-1111, 29 amino acids; also called p190RhoGAP peptide; ARHGAP35 peptide; source: synthetic peptide, bought: GenScript) [p190RhoGAP phosphopeptide, residues 1083 to 1111 (pY1087, pY1105)] : its pKd reads 8.39
